- System: TK-10 renal
- assay_overview: NCI-60 one-dose screen, 48 h (100 = growth as untreated, 0 = no growth, -100 = all killed)
- details: 10 µM unless noted
This is part of a sample that, as a whole, favours compounds with a hit. Of some 83,000 tested, about 20% had one in any assay. Calls of active or inactive are those of the source. How the source made its calls: active means growth percent below 10; inactive means the rest.
readout_name: growth

1. CCS(=O)(=O)N1CCN(c2ccc(Nc3ncc(C(N)=O)c(NC4CC4)n3)cc2)CC1 ... 87.3% (inactive)

Answer with growth of CC(C)NC[C@@H](C(=O)N1CCN(c2ncnc3c2[C@H](C)C[C@H]3O)CC1)c1ccc(Cl)cc1 measured for TK-10 renal. 32.2% (inactive)

Answer with growth of COC(=O)c1ccc2c(C(=Nc3ccc(N(C)C(=O)CN4CCN(C)CC4)cc3)c3ccccc3)c(O)[nH]c2c1 measured for TK-10 renal. 46.5% (inactive)

Answer with growth of Cc1cn(-c2cc(NC(=O)c3ccc(C)c(Nc4nccc(-c5cccnc5)n4)c3)cc(C(F)(F)F)c2)cn1 measured for TK-10 renal. 75.1% (inactive)

* * *

- System: SW-620 colon
- assay_overview: NCI-60 one-dose screen, 48 h (100 = growth as untreated, 0 = no growth, -100 = all killed)
- details: 10 µM unless noted
About 83,000 compounds went through this panel and 20% of them were active in at least one assay; those are over-represented in the sample as a whole.
Measured growth values are reported for all entries that follow.
Write the answer as a number in %, unit excluded.

As a guide, the following entries are already answered.
1. CCc1cc2c(cc1N1CCC(N3CCOCC3)CC1)C(C)(C)c1[nH]c3cc(C#N)ccc3c1C2=O ... 2.54
2. C1=C\COCc2cc(ccc2OCCN2CCCC2)Nc2nccc(n2)-c2cccc(c2)COC/1 ... 3.2
3. OCCNC(=S)Nc1ccc(-c2nc(N3C[C@H]4CC[C@@H](C3)O4)c3cccn3n2)cc1 ... 11.6

Fill in reported growth for this entry: C=CC(=O)Nc1cc2c(Nc3ccc(F)c(Cl)c3)ncnc2cc1OCCCN1CCOCC1 -53.5

Fill in reported growth for this entry: Cn1c(Nc2ccc(C(F)(F)F)cc2)nc2cc(Oc3ccnc(-c4ncc(C(F)(F)F)[nH]4)c3)ccc21 65.5

Fill in reported growth for this entry: C#Cc1cccc(Nc2ncnc3cc(OC)c(OCCCCCCC(=O)NO)cc23)c1 -22.6

Fill in reported growth for this entry: COC(=O)CC[C@@H](C)[C@H]1CC[C@H]2C3CC[C@@H]4C[C@@H]5CC[C@]4(C)[C@@]3(O5)[C@H](Br)[C@@H](Br)[C@]12C (stereo partly specified) 102

Fill in reported growth for this entry: Cc1ccccc1Nc1nc2nonc2nc1Nc1cccc(C)c1C 77

Fill in reported growth for this entry: COc1cc(C(=O)NNC(=O)c2ccc(NC(=O)CCl)cc2)cc(OC)c1OC 65.5

Fill in reported growth for this entry: CCCCCCCC(=O)SCC/C=C/[C@@H]1CC(=O)NCc2nc(co2)C2=N[C@@](C)(CS2)C(=O)N[C@@H](C(C)C)C(=O)O1 -29.2

Fill in reported growth for this entry: Clc1ccc(C(Cn2ccnc2)OCc2ccsc2Cl)c(Cl)c1 (stereo unspecified) 45.1

Fill in reported growth for this entry: CN1C/C=C\CCOc2cccc(c2)-c2ccnc(n2)Nc2cccc(c2)C1 -5.5

Fill in reported growth for this entry: COc1cc(C2CC(c3ccc(Cl)cc3)=NN2c2ccc(Cl)cc2)cc(OC)c1OC (stereo unspecified) 96.6

Fill in reported growth for this entry: CC(C)OP(=O)(CCC(=O)c1c[nH]c2ccccc12)OC(C)C 105

Fill in reported growth for this entry: C=C1CC[C@@H]2[C@](C)(COC(C)=O)[C@H](OC(C)=O)CC[C@@]2(C)[C@@H]1C/C=C1/C(=O)OC[C@H]1OC(C)=O -21.9

Fill in reported growth for this entry: C[C@@H]1COC(Nc2ccc3ncnc(Nc4ccc(OCc5nccs5)c(Cl)c4)c3c2)=N1 76.8

Fill in reported growth for this entry: NC[C@@](O)(c1ccc(Cl)cc1)c1ccc(-c2cn[nH]c2)cc1 7.7

Fill in reported growth for this entry: Cc1cc2c(-c3nc4ccccn4c3N)c(O)c(O)cc2c(O)c1-c1c(C)cc2c(-c3nc4ccccn4c3N)c(O)c(O)cc2c1O 22.7

Fill in reported growth for this entry: Cc1cc(Nc2cc(N3CCN(C)CC3)nc(/C=C/c3ccccc3)n2)n[nH]1 0.289

Fill in reported growth for this entry: CCCCOc1nc2cc(Cl)ccc2cc1/C=C/c1cc(/C=C/c2cc3ccc(Cl)cc3nc2OCCCC)n(-c2ccccc2)n1 105

Fill in reported growth for this entry: CCN(CC)CCNc1ccc(N=Nc2cnc3ccccc3c2)c2ccccc12 -84.4
